// data source = patent US20260062456A1

tested.target: human PD-1 stably expressed on Jurkat/IL-2 reporter cells (Jurkat/PD-1 cells) (human, UniProt Q15116 25-288)
Sequence (Q15116 25-288): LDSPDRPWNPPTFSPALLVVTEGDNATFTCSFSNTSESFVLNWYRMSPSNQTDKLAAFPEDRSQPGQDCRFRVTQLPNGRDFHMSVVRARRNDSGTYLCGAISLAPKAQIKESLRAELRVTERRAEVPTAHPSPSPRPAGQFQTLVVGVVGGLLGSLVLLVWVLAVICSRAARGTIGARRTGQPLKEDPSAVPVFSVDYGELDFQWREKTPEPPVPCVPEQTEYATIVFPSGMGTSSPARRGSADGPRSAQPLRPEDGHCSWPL
assay.method.text: flow cytometry, Jurkat/PD-1 cells
measurement.name: Fold Increase over WT PD-L1 ECD-Fc (fold)

INSERT INTO measurements (binder, measured_value) VALUES
  ('variant PD-L1 ECD-Fc N45D, V50A, R195T (Fc fusion, not shown: a dimerising Fc or GST) FTVTVPKDLYVVEYGSNMTIECKFPVEKQLDLAALIVYWEMEDKDIIQFAHGEEDLKVQHSSYRQRARLLKDQLSLGNAALQITDVKLQDAGVYRCMISYGGADYKRITVKVNAPYNKINQRILVVDPVTSEHELTCQAEGYPKAEVIWTSSDHQVLSGKTTTTNSKREEKLFNVTSTLRINTTTNEIFYCTFRTLDPEENHTAELVIPELPLAHPPNER', 28.3),
  ('variant PD-L1 ECD-Fc N45D, N165Y, E170G (Fc fusion, not shown: a dimerising Fc or GST) FTVTVPKDLYVVEYGSNMTIECKFPVEKQLDLAALIVYWEMEDKDIIQFVHGEEDLKVQHSSYRQRARLLKDQLSLGNAALQITDVKLQDAGVYRCMISYGGADYKRITVKVNAPYNKINQRILVVDPVTSEHELTCQAEGYPKAEVIWTSSDHQVLSGKTTTTYSKREGKLFNVTSTLRINTTTNEIFYCTFRRLDPEENHTAELVIPELPLAHPPNER', 17.8),
  ('variant PD-L1 ECD-Fc N45D, V50A, I119T, K144E (Fc fusion, not shown: a dimerising Fc or GST) FTVTVPKDLYVVEYGSNMTIECKFPVEKQLDLAALIVYWEMEDKDIIQFAHGEEDLKVQHSSYRQRARLLKDQLSLGNAALQITDVKLQDAGVYRCMISYGGADYKRITVKVNAPYNKTNQRILVVDPVTSEHELTCQAEGYPEAEVIWTSSDHQVLSGKTTTTNSKREEKLFNVTSTLRINTTTNEIFYCTFRRLDPEENHTAELVIPELPLAHPPNER', 6.8);
